- System: HeLa cells
- ASSAY SUMMARY: Dose Enhancing Factor: cell growth inhibition with bleomycin, SRB assay
- Assay type: cell-based
- EXPERIMENTAL PARAMETERS: test compound 25 μM, bleomycin 0.5 μg/ml
READOUT NAME: DEF (Dose Enhancing Factor)
Just the number, please, no unit attached.

For Nc1cc(Cc2n[nH]c(=O)c3ccccc23)ccc1N1CCSCC1 [Compound 198] , write its DEF (Dose Enhancing Factor).
2.3

Entry O=c1[nH]nc(Cc2ccc(N3CCCC3)c([N+](=O)[O-])c2)c2ccccc12 [Compound 204] needs its DEF (Dose Enhancing Factor) filled in; supply it.
1.6

Tell me DEF (Dose Enhancing Factor) reported for O=c1[nH]nc(Cc2ccccc2F)c2ccccc12 [Compound 248]
1.2

Specify measured DEF (Dose Enhancing Factor) for O=c1[nH]nc(Cc2cccc(O)c2)c2ccccc12 [Compound 165] .
1.3

For the molecule O=c1[nH]nc(Cc2ccc(Cl)cc2)c2ccccc12 [Compound 126] , give its measured DEF (Dose Enhancing Factor) value.
1.9

# return recorded DEF (Dose Enhancing Factor) for input CC(=O)Oc1ccc(Cc2n[nH]c(=O)c3ccccc23)cc1 [Compound 213]
1.3

For O=C(Oc1cccc(Cc2n[nH]c(=O)c3ccccc23)c1)c1ccc(F)cc1 [Compound 212] , write its DEF (Dose Enhancing Factor).
2.3

Quote DEF (Dose Enhancing Factor) reported for O=c1[nH]nc(Cc2ccc3c(c2)OCO3)c2ccccc12 [Compound 180] please.
1.2

Return DEF (Dose Enhancing Factor) for the following molecule: CC(=O)Oc1cccc(Cc2n[nH]c(=O)c3ccccc23)c1 [Compound 179]
1.4

Provide only the value of recorded DEF (Dose Enhancing Factor) for Cc1ccccc1Cc1n[nH]c(=O)c2ccccc12 [Compound 163]
1.3

Give the reported DEF (Dose Enhancing Factor) for this molecule. O=C(Nc1cccc(Cc2n[nH]c(=O)c3ccccc23)c1)c1ccc(F)cc1 [Compound 170]
2.6

Item CC(=O)Nc1cccc(Cc2n[nH]c(=O)c3ccccc23)c1 [Compound 172] : provide DEF (Dose Enhancing Factor)
1.4

Answer with reported DEF (Dose Enhancing Factor) of O=c1[nH]nc(Cc2cccc(Cl)c2)c2ccccc12 [Compound 186]
1.6

Please look at this molecule and report its DEF (Dose Enhancing Factor): O=c1[nH]nc(Cc2ccncc2)c2ccccc12 [Compound 177]
1.2

Specify reported DEF (Dose Enhancing Factor) for the molecule shown: O=c1[nH]nc(Cc2ccc(Br)cc2)c2ccccc12 [Compound 129]
1.3

Annotate the molecule O=c1[nH]nc(CSc2ccccn2)c2ccccc12 [Compound 91] with its measured DEF (Dose Enhancing Factor).
1.4

Identify measured DEF (Dose Enhancing Factor) corresponding to O=c1[nH]nc(Cc2cccc(C(F)(F)F)c2)c2ccccc12 [Compound 191]
1.5

Output measured DEF (Dose Enhancing Factor) for this item: O=c1[nH]nc(CSc2ccc(Cl)cc2)c2ccccc12 [Compound 90]
1.8

For O=C(Nc1ccc(F)cc1)Nc1cccc(Cc2n[nH]c(=O)c3ccccc23)c1 [Compound 216] , write its DEF (Dose Enhancing Factor).
1.3

Return reported DEF (Dose Enhancing Factor). Input molecule: O=c1[nH]nc(Cc2ccc(F)cc2)c2ccccc12 [Compound 132]
2.3

----------
- System: HeLa cells
- ASSAY SUMMARY: Dose Enhancing Factor: cell growth inhibition with bleomycin, SRB assay
- Format: cell-based
- EXPERIMENTAL PARAMETERS: test compound 25 μM, bleomycin 0.5 μg/ml
READOUT NAME: DEF (Dose Enhancing Factor)
Give a plain numeric answer without units written out.

Enter measured DEF (Dose Enhancing Factor), system HeLa cells, for the molecule shown: O=c1[nH]nc(Cc2ccccc2F)c2ccccc12 [Compound 141]
1.6

Provide HeLa cells DEF (Dose Enhancing Factor) reading for O=c1[nH]nc(Cc2cccnc2)c2ccccc12 .
1.9

Report DEF (Dose Enhancing Factor) under test system HeLa cells for O=C(Nc1cccc(Cc2n[nH]c(=O)c3ccccc23)c1)c1ccccc1 .
1.8

Provide the reported DEF (Dose Enhancing Factor) (system: HeLa cells) for O=c1[nH]nc(Cc2cccc(OCc3ccccc3)c2)c2ccccc12
1.6

Send back HeLa cells DEF (Dose Enhancing Factor) of O=c1[nH]nc(Cc2cccc3ccccc23)c2ccccc12 only.
1.3
